- Assay System: T1, LSALT phage (T7 phage displaying the LSALT peptide LSALTPSPSWLKYKAL) (also: displayed on T7 phage, fused to the coat protein)
- T1 construct: The peptide is not naturally occurring; it is the out-of-frame product of Ube2n; also called Ube2n (LSALT) phage; LSALT-bacteriophage
- T1 peptide: LSALTPSPSWLKYKAL
- Experimental Protocol: biopanning of a combinatorial M13 phage library against LSALT phage immobilized on nitrocellulose
Ends that are not written are not given here.
Measured Endpoint: binding result

TTEHPRK (also called putative target of LSALT) [TTEHPRK (SEQ ID NO: 12)]
binds
IPPSYSATLPALR (also called putative target of LSALT) [IPPSYSATLPALR (SEQ ID NO: 4)]
binds
LNTQTGK (also called putative target of LSALT) [LNTQTGK (SEQ ID NO: 15)]
binds

// provenance: patent US20150225459A1
